# PROCEDURE SUMMARY: Human HepG2 cell viability assay in 384 well format
# Assay type: toxicity, cell-based
# Set-up: dose 125 nL, time 70.5 hour; concentration not given beside the values
# TEST SETTINGS: HepG2 cells, read-out: Inhibition
EXPERIMENTAL READOUT: cytotoxicity at 70.5 h (%)
Answers are plain numbers, in %.

Example molecules with recorded cytotoxicity at 70.5 h:
MOLECULE	ENDPOINT UNIT	cytotoxicity at 70.5 h
CCc1ccc(OCC(O)CN2CCN(CCO)CC2)cc1 (stereo not drawn)	%	-3.3
COc1c(C)cnc(CN(C)C(=O)c2ccccc2F)c1C	%	-4.79

Quick batch: cytotoxicity at 70.5 h for everything below.
1. COCC1CCCCN1C(=O)c1cc(Cn2ccc3ccccc32)[nH]n1 (stereo not drawn)
2. c1ccc(CN2CC[C@@H]3O[C@@H](COCCN4CCCC4)CC[C@@H]32)nc1
3. c1cnn(C[C@@H]2C[C@@H]3CN(CC4CC4)CC[C@@H]3N2c2nccs2)c1
4. Cc1nc2n(n1)CC(NCc1cnn(-c3ccccc3)n1)CC2 (stereo not drawn)
5. CC(C)CC(CCO)CNC(=O)N1CC(C)(C)C1(C)C (stereo not drawn)

## Output
-2.47
-13.6
0.124
-9.59
-7.83

Quick batch: cytotoxicity at 70.5 h for everything below.
1. COCCOc1ccc(S(=O)(=O)Nc2cccnc2O)cc1C
2. COc1cccc(C(=O)N2CCc3ncnc(C)c3CC2)c1
3. COc1cc(F)c(C(=O)NCc2ccon2)c(F)c1
4. CN1CCc2nc(C3CCCCN3Cc3ccccc3Cl)ncc2C1 (stereo not drawn)
5. Cc1nnc(NC(=O)CN2CCOC(Cn3cccn3)C2)s1 (stereo not drawn)

## Output
1: -4.13; 2: -5.4; 3: -3.42; 4: -4.18; 5: -6.17

Quick batch: cytotoxicity at 70.5 h for everything below.
1. Cn1nc(-c2cccs2)cc1[C@H]1CN2CC[C@H]1C[C@@H]2CN
2. Cc1ncoc1C(=O)N1C[C@H]2CCC[C@@]2(COCC2CCOCC2)C1

## Output
[-6.9, -12.7]

Quick batch: cytotoxicity at 70.5 h for everything below.
1. O=C(c1ccccc1-c1nnn[nH]1)N1CCOC(C(F)(F)F)C1 (stereo not drawn)
2. CCC(CNC(=O)c1nc(=O)[nH][nH]1)Oc1ccccc1C(F)(F)F (stereo not drawn)

## Output
1: -9.42; 2: 1.22
